Below, each entry is listed with its recorded viability, T/C.
Test system: 855422-203-R-J1-PDC complex spheroid viability
Protocol Notes: Anticancer human tumor 855422-203-R-J1-PDC patient-derived bladder carcinoma cell line growth inhibition [POLQ]
Conditions: second compound 1 µM; first compound 3.16 µM; hits give low values
Recorded Metric: viability, T/C (%)

CC(C)n1c(=O)n(C)c2cnc3cc(F)c(-c4ccc(OCCCN5CCCCC5)nc4)cc3c21 + Nc1ccc(C#CCN(C(=O)Cc2ncc(C(F)(F)F)cc2C(F)(F)F)c2ccc(F)cc2)nn1; 101
Nc1ccn(C2OC(CO)C(O)C2(F)F)c(=O)n1 (stereo not given) + Cc1cccc(N(C)C(=O)C2C(O)CCN2c2nc(C)cc(C(F)(F)F)c2C#N)c1; 8.68
CC1COCCN1c1cc(C2(O)CC3CCC(C2)O3)c2cnn(-c3ccn[nH]3)c2n1 (stereo not given) + Nc1ccc(C#CCN(C(=O)Cc2ncc(C(F)(F)F)cc2C(F)(F)F)c2ccc(F)cc2)nn1; 10.2
O=C(Nc1ccc(O)c(NS(=O)(=O)c2ccc(F)cc2)c1)c1ccc(-c2ccccc2)cc1 + Nc1ccc(C#CCN(C(=O)Cc2ncc(C(F)(F)F)cc2C(F)(F)F)c2ccc(F)cc2)nn1; 112
COc1ccc([C@@H](O)c2cc(-c3ncnc4cc(N5CCOCC5)ccc34)c(F)cc2Cl)nn1 + Nc1ccc(C#CCN(C(=O)Cc2ncc(C(F)(F)F)cc2C(F)(F)F)c2ccc(F)cc2)nn1; 111

###

Test system: 855422-203-R-J1-PDC complex spheroid viability
Protocol Notes: Anticancer human tumor 855422-203-R-J1-PDC cell line growth inhibition [POLQ];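 note: spheroids exposed to compounds for seven days before readout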
Conditions: second compound 3.16 µM; first compound 1 µM; hits give low values
Recorded Metric: viability, T/C (%)

CC(C)n1c(=O)n(C)c2cnc3cc(F)c(-c4ccc(OCCCN5CCCCC5)nc4)cc3c21 + Nc1ccc(C#CCN(C(=O)Cc2ncc(C(F)(F)F)cc2C(F)(F)F)c2ccc(F)cc2)nn1; 106
C#Cc1c(F)ccc2cc(O)cc(-c3ncc4c(N5CC6CCC(C5)N6)nc(OCC56CCCN5CC(F)C6)nc4c3F)c12 (stereo not given) + Nc1ccc(C#CCN(C(=O)Cc2ncc(C(F)(F)F)cc2C(F)(F)F)c2ccc(F)cc2)nn1; 97.6
CC(C)n1c(=O)n(C)c2cnc3cc(F)c(-c4ccc(OCCCN5CCCCC5)nc4)cc3c21 + Cc1cccc(N(C)C(=O)C2C(O)CCN2c2nc(C)cc(C(F)(F)F)c2C#N)c1; 97.5
C#Cc1c(F)ccc2cc(O)cc(-c3ncc4c(N5CC6CCC(C5)N6)nc(OCC56CCCN5CC(F)C6)nc4c3F)c12 (stereo not given) + COC1C(OC(N)=O)C(O)C(Oc2ccc3c(O)c(NC(=O)c4ccc(O)c(CC=C(C)C)c4)c(=O)oc3c2C)OC1(C)C; 111
COc1cc(C2c3cc4c(cc3C(OC3OC5COC(C)OC5C(O)C3O)C3COC(=O)C23)OCO4)cc(OC)c1O (stereo not given) + Nc1ccc(C#CCN(C(=O)Cc2ncc(C(F)(F)F)cc2C(F)(F)F)c2ccc(F)cc2)nn1; 20.5
O=C(c1cc(Cc2n[nH]c(=O)c3ccccc23)ccc1F)N1CCN(C(=O)C2CC2)CC1 + Cc1cccc(N(C)C(=O)C2C(O)CCN2c2nc(C)cc(C(F)(F)F)c2C#N)c1; 103
Nc1ccn(C2OC(CO)C(O)C2(F)F)c(=O)n1 (stereo not given) + COC1C(OC(N)=O)C(O)C(Oc2ccc3c(O)c(NC(=O)c4ccc(O)c(CC=C(C)C)c4)c(=O)oc3c2C)OC1(C)C; 9.44
CC1COCCN1c1cc(C2(S(C)(=N)=O)CC2)nc(-c2ccnc3[nH]ccc23)n1 (stereo not given) + Cc1cccc(N(C)C(=O)C2C(O)CCN2c2nc(C)cc(C(F)(F)F)c2C#N)c1; 105
COc1cc(C2c3cc4c(cc3C(OC3OC5COC(C)OC5C(O)C3O)C3COC(=O)C23)OCO4)cc(OC)c1O (stereo not given) + COC1C(OC(N)=O)C(O)C(Oc2ccc3c(O)c(NC(=O)c4ccc(O)c(CC=C(C)C)c4)c(=O)oc3c2C)OC1(C)C; 12.7
CC(C)n1c(=O)n(C)c2cnc3cc(F)c(-c4ccc(OCCCN5CCCCC5)nc4)cc3c21 + COC1C(OC(N)=O)C(O)C(Oc2ccc3c(O)c(NC(=O)c4ccc(O)c(CC=C(C)C)c4)c(=O)oc3c2C)OC1(C)C; 79.1
